- Test system: A549
- Assay method text: NCI tumour cell line growth inhibition, 48 h
Calls of active or inactive are those of the source. Rule as the data show it: active = GI50 up to about 1.1 µM and inactive = higher.
Field 'call' accepts True (active), False (inactive)

{"Molecule": "O=C(N/N=C(COc1ccccc1)\\N=C\\c1cccnc1)c1ccncc1", "Assigned category": "False"}
{"Molecule": "NC(=O)c1nc(-c2ccc(Cl)c(Cl)c2)nc2ccccc12", "Assigned category": "False"}
{"Molecule": "CN1CCN(c2ccc([N+](=O)[O-])c3no[n+]([O-])c23)CC1", "Assigned category": "True"}
{"Molecule": "COC(=O)C(=O)C(C(=O)C(=O)Nc1ccccc1[N+](=O)[O-])c1nc2ccc([N+](=O)[O-])cc2nc1O (configuration not stated)", "Assigned category": "False"}
{"Molecule": "COC(CNC(=O)CNC(=O)c1ccc(C(F)(F)F)cc1)OC", "Assigned category": "False"}

Hello, I am checking results. What call was entered for CCOC(=O)c1s/c(=N\Nc2nc3ccccc3cc2C2OCCO2)n(Cc2ccccc2)c1C ?
False

Hello, I am checking results. What call was entered for O=C(CC1S/C(=N\c2ccccc2Cl)NC1=O)Nc1ccc(Cl)cc1 (configuration not stated) ?
False

Hello, I am checking results. What call was entered for O=C(O)Cc1cccnc1 ?
False

Hello, I am checking results. What call was entered for CC(C)C12CCC3(CCC4C(C)(C(=O)O)CCCC4(C)C3C1)C(CN)C2 (configuration not stated) ?
False

Hello, I am checking results. What call was entered for CC1(C)CCC(=O)NC1CC(=O)CC1NC(=O)CCC1(C)C (configuration not stated) ?
False

Hello, I am checking results. What call was entered for C/C(=C\CCC1=CC(=O)OC1)CC[C@@H]1[C@H]2C(=O)CC(C)[C@@]3(C)CC[C@]1(C)[C@@]23C (some centres not stated) ?
False

###

- System: T47D
- Assay method text: NCI tumour cell line growth inhibition, 48 h
Calls of active or inactive are those of the source. No stated cut-off is given here; in the data, active = GI50 up to about 1.1 µM and inactive = higher.
Field 'call' accepts active, inactive

Example entries and their recorded answers appear below.
{"Molecule": "O=c1[nH]c(=O)n(C2CC(O)C(CO)O2)cc1OCc1ccccc1 (stereo unspecified)", "Assigned category": "inactive"}
{"Molecule": "CCCCC(CCCC)=NNC(=S)SC", "Assigned category": "inactive"}
{"Molecule": "CCc1oc2ccccc2c1C(=O)c1cc(Br)c(O)c(Br)c1", "Assigned category": "inactive"}
{"Molecule": "Oc1cc(-c2cccc(OCc3ccccc3)c2)nc2cc3c(cc12)OCO3", "Assigned category": "inactive"}
{"Molecule": "Nc1ncnc2c1ncn2[C@@H]1C[C@H](NO)[C@@H](O)[C@H]1O", "Assigned category": "inactive"}
{"Molecule": "CN1CCN(c2ccc([N+](=O)[O-])c3no[n+]([O-])c23)CC1", "Assigned category": "active"}
{"Molecule": "Cc1cn(S(=O)(=O)c2ccccc2)c2c(OCc3ccccc3)cc([N+](=O)[O-])cc12", "Assigned category": "inactive"}
{"Molecule": "COC(=O)c1sc(=S)sc1SCc1ccc(CSc2sc(=S)sc2C(=O)OC)cc1", "Assigned category": "inactive"}

Hello, I am checking results. What call was entered for CC1(C)CCCCCC(C)(CCCCCCCCCCCO)C1=O (stereo unspecified) ?
inactive

Hello, I am checking results. What call was entered for CC(=O)NC1C(OCc2ccccc2)OC(CO)C(O)C1OC(C)C(=O)NC(C(=O)NC(CCC(=O)NCCCC(=O)Nc1ccc2c(c1)CN1C(=O)c3ccccc3C1=N2)C(N)=O)C(C)C (stereo unspecified) ?
inactive

Hello, I am checking results. What call was entered for COC1(c2ccccc2)N=C(S)NN=C1c1ccccc1 (stereo unspecified) ?
inactive

###

For each record, write down the corresponding GI50.
- System: SK-MEL-28
- Assay method text: NCI tumour cell line growth inhibition, 48 h
Calls of active or inactive are those of the source. Cut-off read from the data, not from the text of the source: active = GI50 up to about 1.1 µM and inactive = higher.

Here's what some known entries look like.
{"Compound": "COc1ccc(C(=O)C(CC2C(=O)NC(=O)NC2=O)c2ccc(OC)cc2)cc1 (stereo unspecified)", "Measurement target": "SK-MEL-28", "GI50": "> 100 µM (inactive)"}
{"Compound": "CC(C)O/C=C1\\C(=O)C2(SCCS2)[C@H]2CCCC[C@@H]12", "Measurement target": "SK-MEL-28", "GI50": "> 100 µM (inactive)"}
{"Compound": "CCCCCNC(=O)C1C(=O)N(CCCCC)C(=O)/C1=N\\N (stereo unspecified)", "Measurement target": "SK-MEL-28", "GI50": "62.8 µM (inactive)"}
{"Compound": "O=C(CC1(O)C(=O)Nc2c(Cl)ccc(Cl)c21)c1ccc(F)cc1 (stereo unspecified)", "Measurement target": "SK-MEL-28", "GI50": "> 100 µM (inactive)"}
{"Compound": "CC(=O)c1ccc2c(c1)CC1(C2)Cc2ccc3c(c2C1=O)CCC3 (stereo unspecified)", "Measurement target": "SK-MEL-28", "GI50": "20.3 µM (inactive)"}

Provide the reported GI50 of each entry below, same order.
1. O=C1NC(=O)C(C(=O)C(=O)Nc2cccc(C(F)(F)F)c2)C(=O)N1
2. Cc1c2c(c(C)c3c[n+](C)ccc13)Oc1ccccc1O2
3. Cc1ccc(Cl)c2[nH]c(-c3ccccc3)cc(=O)c12
4. CCOP(=O)(/C=C\n1ccc(N)nc1=O)OCC
5. C/C(=C\COc1ccc2ccc(=O)oc2c1)C1=CC(=O)C(C)(C)O1 [GEIPARVARIN]
6. CC(C)(C)C1=C(Br)C(O)(C(C)(C)C)OP1(=O)c1ccccc1 (stereo unspecified)
7. O=C(NC12CC3CC(CC(C3)C1)C2)n1cnc2c(Cl)ncnc21
8. Cc1ccc(-c2cc(-c3ccc(Cl)cc3)nc(/N=C3\C(=O)N(CN(C)C)c4ccccc43)n2)cc1

> 100 µM (inactive)
13.7 µM (inactive)
39.7 µM (inactive)
> 100 µM (inactive)
4.23 µM (inactive)
> 100 µM (inactive)
42.9 µM (inactive)
> 100 µM (inactive)

Provide the reported GI50 of each entry below, same order.
1. CC(NC(=O)c1ccccc1)(C(=O)O)C(=O)O
2. Nc1nc(Cl)cc(NCC2(CO)CC=CC2)n1
3. C=C1C(=O)O[C@@H]2C[C@@H](C)[C@@H]3[C@@H](OC4OC(COC(C)=O)C(O)C(O)C4O)CC(=O)[C@@]3(C)C[C@H]12 (stereo partly specified)
4. CNC(=O)C1(N)c2ccccc2C=Cc2ccccc21
5. c1ccc(CSC(SCc2ccccc2)c2cccc3ccccc23)cc1
6. Cc1ccc([N+](=O)[O-])cc1S(=O)(=O)Nc1ccc(C2=NN(C(=O)c3ccccc3)C(c3ccccc3O)C2)cc1 (stereo unspecified)
7. O=C1C(=Cc2ccc(F)cc2)C(=O)c2ccccc21

> 100 µM (inactive)
> 100 µM (inactive)
2.15 µM (inactive)
> 100 µM (inactive)
> 10 µM (inactive)
28.2 µM (inactive)
> 100 µM (inactive)

Provide the reported GI50 of each entry below, same order.
1. COC1=NC(NC2OCC(O)C(O)C2O)=C(NC(C)=O)CN1C (stereo unspecified)
2. COC(=O)C1=CON2C3CC4CC(C3)CC(C4)C12C (stereo unspecified)

1. > 100 µM (inactive)
2. > 100 µM (inactive)

Provide the reported GI50 of each entry below, same order.
1. C[C@]1(O)O[C@@H]2OCC[C@@H]2C2=C1C(=O)c1ccccc1C2=O
2. Cc1nc2ccc(C(F)(F)F)cc2nc1NCc1ccc(Cl)c(Cl)c1
3. Cc1ccc([N+](=O)[O-])cc1NC(=O)C(=O)C(C(=O)c1ccccc1F)C1OC(=O)c2ccccc21 (stereo unspecified)
4. N#Cc1ccc(Sc2nc3ccccc3[nH]2)cc1
5. COC1OC(=O)[C@H]2O[N+]([O-])=C(C)[C@@H]12 (stereo partly specified)
6. N#Cc1nc(Nc2ccc(Cl)cc2)sc1N
7. Nc1ncnc2c1ncn2[C@@H]1C[C@H](NO)[C@@H](O)[C@H]1O

["29.4 µM (inactive)", "18.4 µM (inactive)", "36.4 µM (inactive)", "> 100 µM (inactive)", "> 100 µM (inactive)", "20.5 µM (inactive)", "> 100 µM (inactive)"]

###

- Test system: SK-MEL-2
- Assay method text: NCI tumour cell line growth inhibition, 48 h
Activity calls are given as the source filed them. Rule as the data show it: active = GI50 up to about 1.1 µM and inactive = higher.
Field 'call' accepts true (1) for active, false (0) for inactive

Hello, I am checking results. What call was entered for Cc1ccc([N+](=O)[O-])cc1S(=O)(=O)Nc1ccc(C2=NN(C(=O)c3ccccc3)C(c3ccccc3O)C2)cc1 (stereo not drawn) ?
false (0)

Hello, I am checking results. What call was entered for CN(/N=C\c1ccnc2ccccc12)c1ccccc1 ?
false (0)

Hello, I am checking results. What call was entered for CC1(C)CC(=O)c2c(nc3c4c([nH]c(-c5ccc(Br)cc5)c24)CC(C)(C)C3)C1 ?
false (0)

Hello, I am checking results. What call was entered for CC(C)(C)C1=C(Br)C(O)(C(C)(C)C)OP1(=O)c1ccccc1 (stereo not drawn) ?
false (0)

Hello, I am checking results. What call was entered for C=C1C(=O)O[C@@H]2C[C@@H](C)[C@@H]3[C@@H](OC4OC(COC(C)=O)C(O)C(O)C4O)CC(=O)[C@@]3(C)C[C@H]12 (stereo partly drawn) ?
false (0)

Hello, I am checking results. What call was entered for O=C(CC(=O)C(=O)Nc1ccccc1)CC(c1ccccc1)c1c(O)c2ccccc2oc1=O (stereo not drawn) ?
false (0)

Hello, I am checking results. What call was entered for O=C(CC1(O)C(=O)Nc2c(Cl)ccc(Cl)c21)c1ccc(F)cc1 (stereo not drawn) ?
false (0)

Hello, I am checking results. What call was entered for COc1ccc2c(-c3ccc(O)cc3)c(Oc3ccccc3)c(=O)oc2c1 ?
false (0)

Hello, I am checking results. What call was entered for CCN(CC)CCCC(C)Nc1cc(-c2ccccc2)nc2cc(OC)ccc12 (stereo not drawn) ?
false (0)

Hello, I am checking results. What call was entered for COc1cccc(C2c3cc4c(cc3OC3COC(=O)C32)OCO4)c1OC (stereo not drawn) ?
false (0)

Hello, I am checking results. What call was entered for N#Cc1ccccc1NC(=O)c1ccccc1 ?
false (0)

Hello, I am checking results. What call was entered for CCN(CC)C(=S)SS(=O)(=O)c1ccc(F)cc1 ?
false (0)

Hello, I am checking results. What call was entered for C[N+]1(C)CC[N+](C)(C)[BH-]1C(O)O ?
false (0)

Hello, I am checking results. What call was entered for Cc1cc2occ(S(=O)(=O)NC(=O)Nc3ccc(Cl)cc3)c(=O)c2c(=O)o1 ?
false (0)
